Tested on: 885512-296-R-J2-PDC complex spheroid viability
Assay: Anticancer human tumor 885512-296-R-J2-PDC patient-derived breast carcinoma cell line growth inhibition [GQUAD]; active = viability on the fitted dose curve at most 10% of control; inactive = the rest
Settings: second compound 0.0316 µM; first compound 0.0316 µM
From the text: DNA G-quadruplex Stabilizer Agents in Combinations in Complex Spheroids A high-throughput screen of multi-cell type tumor spheroids was designed to identify active combinations of DNA G-quadruplex stabilizer agents and targeted small molecules. […] Compounds. […] If the clinical Cmax for an agent had not been determined, the highest concentration tested was 10 microM. […]
Choose one outcome from this list and give only that: 1 (yes) (active), 0 (no) (inactive)

These recorded examples may help you get a feel for the data.
compound	label.value
CC1COCCN1c1cc(-c2ccnn2C)c2ccnc(-c3ccn[nH]3)c2n1 (stereo unspecified) + Cc1cnc(CNC(=O)c2c(=O)c3ccc(N4CCCN(C)CC4)nc3n3c2sc2ccccc23)cn1	1 (yes)
CC(C)(O)C1CCC(Nc2ccc3ncc(-c4cccc(C(F)(F)F)c4)n3n2)CC1 (stereo unspecified) + Cc1[nH]c2ccc(F)cc2c1-c1nc2c3cccnc3c3ncccc3c2[nH]1	0 (no)
CC1COCCN1c1cc(C2(O)CC3CCC(C2)O3)c2cnn(-c3ccn[nH]3)c2n1 (stereo unspecified) + Cc1cnc(CNC(=O)c2c(=O)c3ccc(N4CCCN(C)CC4)nc3n3c2sc2ccccc23)cn1	1 (yes)
COc1ncnc(C2CC2)c1-c1ncc2cnn(Cc3ccc(-c4nc(C(F)(F)F)cn4C(C)C)cc3)c2n1 + CN(C)c1ccc(Nc2c3ccc(NC(=O)CCN4CCCC4)cc3nc3cc(NC(=O)CCN4CCCC4)ccc23)cc1	0 (no)
COc1cc(C2c3cc4c(cc3C(OC3OC5COC(C)OC5C(O)C3O)C3COC(=O)C23)OCO4)cc(OC)c1O (stereo unspecified) + Cc1cnc(CNC(=O)c2c(=O)c3ccc(N4CCCN(C)CC4)nc3n3c2sc2ccccc23)cn1	0 (no)
C=CCn1c(=O)c2cnc(Nc3ccc(N4CCN(C)CC4)cc3)nc2n1-c1cccc(C(C)(C)O)n1 + Cc1cnc(CNC(=O)c2c(=O)c3ccc(N4CCCN(C)CC4)nc3n3c2sc2ccccc23)cn1	0 (no)
C#Cc1c(F)ccc2cc(O)cc(-c3ncc4c(N5CC6CCC(C5)N6)nc(OCC56CCCN5CC(F)C6)nc4c3F)c12 (stereo unspecified) + CN(C)c1ccc(Nc2c3ccc(NC(=O)CCN4CCCC4)cc3nc3cc(NC(=O)CCN4CCCC4)ccc23)cc1	0 (no)
Cn1ncnc1[C@H]1c2n[nH]c(=O)c3cc(F)cc(c23)N[C@@H]1c1ccc(F)cc1 + Cc1[nH]c2ccc(F)cc2c1-c1nc2c3cccnc3c3ncccc3c2[nH]1	0 (no)
CC1COCCN1c1cc(C2(O)CC3CCC(C2)O3)c2cnn(-c3ccn[nH]3)c2n1 (stereo unspecified) + CN(C)c1ccc(Nc2c3ccc(NC(=O)CCN4CCCC4)cc3nc3cc(NC(=O)CCN4CCCC4)ccc23)cc1	0 (no)
Cc1[nH]c2ccccc2c1CCNCc1ccc(/C=C/C(=O)NO)cc1 + Cc1cnc(CNC(=O)c2c(=O)c3ccc(N4CCCN(C)CC4)nc3n3c2sc2ccccc23)cn1	0 (no)

In this assay, the call recorded for CC1COCCN1c1cc(-c2ccnn2C)c2ccnc(-c3ccn[nH]3)c2n1 (stereo unspecified) + CN(C)c1ccc(Nc2c3ccc(NC(=O)CCN4CCCC4)cc3nc3cc(NC(=O)CCN4CCCC4)ccc23)cc1 was what?
0 (no)

* * *

What viability, T/C was measured for each of the following?
system: 885512-296-R-J2-PDC complex spheroid viability; experiment: Anticancer human tumor 885512-296-R-J2-PDC cell line growth inhibition [GQUAD]; conditions: second compound 0.0316 µM; first compound 0.0316 µM; active compounds read low;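 also: spheroids exposed to the compounds for one week; percent of tumor spheroid viability relative to DMSO vehicle control wells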
One number for each entry, in %.

Check out these entries, answers already filled in.
molecule	viability, T/C (%)
Nc1ccn(C2OC(CO)C(O)C2(F)F)c(=O)n1 (stereo not given) + Cc1cnc(CNC(=O)c2c(=O)c3ccc(N4CCCN(C)CC4)nc3n3c2sc2ccccc23)cn1	11.4
CC[C@@]1(O)C(=O)OCc2c1cc1n(c2=O)Cc2cc3c(CN(C)C)c(O)ccc3nc2-1 + Cc1[nH]c2ccc(F)cc2c1-c1nc2c3cccnc3c3ncccc3c2[nH]1	41.7
CCCS(=O)(=O)Nc1ccc(F)c(C(=O)c2c[nH]c3ncc(-c4ccc(Cl)cc4)cc23)c1F + CN(C)c1ccc(Nc2c3ccc(NC(=O)CCN4CCCC4)cc3nc3cc(NC(=O)CCN4CCCC4)ccc23)cc1	105
CC(=O)O[C@H]1C(=O)[C@@]2(C)[C@H]([C@H](OC(=O)c3ccccc3)[C@]3(O)C[C@H](OC(=O)[C@H](O)[C@@H](NC(=O)c4ccccc4)c4ccccc4)C(C)=C1C3(C)C)[C@]1(OC(C)=O)CO[C@@H]1C[C@@H]2O + Cc1[nH]c2ccc(F)cc2c1-c1nc2c3cccnc3c3ncccc3c2[nH]1	100

# next molecule below
Kindly indicate its recorded viability, T/C. Item: C=CC(=O)N1CCN(c2nc(=O)n(-c3c(C)ccnc3C(C)C)c3nc(-c4c(O)cccc4F)c(F)cc23)C(C)C1 (stereo not given) + Cc1[nH]c2ccc(F)cc2c1-c1nc2c3cccnc3c3ncccc3c2[nH]1
122

* * *

system: 885512-296-R-J2-PDC complex spheroid viability; assay: Anticancer human tumor 885512-296-R-J2-PDC cell line growth inhibition [GQUAD]; conditions: second compound 3.16 µM; first compound 0.316 µM; active compounds read low;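 also: spheroids exposed to the compounds for one week; percent of tumor spheroid viability relative to DMSO vehicle control wells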
Response field label: string, one of 1.0 (viability, T/C strictly below 20%) or 0.0.

molecule	label.value
CC[C@@]1(O)C(=O)OCc2c1cc1n(c2=O)Cc2cc3c(CN(C)C)c(O)ccc3nc2-1 + Cc1[nH]c2ccc(F)cc2c1-c1nc2c3cccnc3c3ncccc3c2[nH]1	1.0
Cc1cccc(N(C)C(=O)C2C(O)CCN2c2nc(C)cc(C(F)(F)F)c2C#N)c1 (stereo not given) + Cc1cnc(CNC(=O)c2c(=O)c3ccc(N4CCCN(C)CC4)nc3n3c2sc2ccccc23)cn1	0.0
CC1COCCN1c1cc(-c2ccnn2C)c2ccnc(-c3ccn[nH]3)c2n1 (stereo not given) + Cc1cnc(CNC(=O)c2c(=O)c3ccc(N4CCCN(C)CC4)nc3n3c2sc2ccccc23)cn1	1.0
Cn1ncnc1[C@H]1c2n[nH]c(=O)c3cc(F)cc(c23)N[C@@H]1c1ccc(F)cc1 + Cc1cnc(CNC(=O)c2c(=O)c3ccc(N4CCCN(C)CC4)nc3n3c2sc2ccccc23)cn1	0.0

Then this molecule:
Consider the molecule O=C(NO)c1cnc(N2CCN(S(=O)(=O)c3ccc4ccccc4c3)CC2)nc1 + CN(C)c1ccc(Nc2c3ccc(NC(=O)CCN4CCCC4)cc3nc3cc(NC(=O)CCN4CCCC4)ccc23)cc1 . Is its viability, T/C strictly less than 20%?
0.0

* * *

test system: 885512-296-R-J2-PDC complex spheroid viability; experiment: Anticancer human tumor 885512-296-R-J2-PDC cell line growth inhibition [GQUAD]; conditions: second compound 0.1 µM; first compound 0.316 µM; active = viability on the fitted dose curve at most 10% of control; inactive = the rest;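 also: spheroids exposed to the compounds for one week; percent of tumor spheroid viability relative to DMSO vehicle control wells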
Choose one outcome from this list and give only that: YES (active), NO (inactive)

These recorded examples may help you get a feel for the data.
molecule	label.value
Cc1cccc(N(C)C(=O)C2C(O)CCN2c2nc(C)cc(C(F)(F)F)c2C#N)c1 (stereo not given) + Cc1[nH]c2ccc(F)cc2c1-c1nc2c3cccnc3c3ncccc3c2[nH]1	NO
C=CCn1c(=O)c2cnc(Nc3ccc(N4CCN(C)CC4)cc3)nc2n1-c1cccc(C(C)(C)O)n1 + CN(C)c1ccc(Nc2c3ccc(NC(=O)CCN4CCCC4)cc3nc3cc(NC(=O)CCN4CCCC4)ccc23)cc1	NO

In this assay, the call recorded for C#Cc1c(F)ccc2cc(O)cc(-c3ncc4c(N5CC6CCC(C5)N6)nc(OCC56CCCN5CC(F)C6)nc4c3F)c12 (stereo not given) + Cc1cnc(CNC(=O)c2c(=O)c3ccc(N4CCCN(C)CC4)nc3n3c2sc2ccccc23)cn1 was what?
NO

In this assay, the call recorded for COc1cccc2c1C(=O)c1c(O)c3c(c(O)c1C2=O)CC(O)(C(=O)CO)CC3OC1CC(N)C(O)C(C)O1 (stereo not given) + CN(C)c1ccc(Nc2c3ccc(NC(=O)CCN4CCCC4)cc3nc3cc(NC(=O)CCN4CCCC4)ccc23)cc1 was what?
NO

In this assay, the call recorded for COc1cccc2c1C(=O)c1c(O)c3c(c(O)c1C2=O)CC(O)(C(=O)CO)CC3OC1CC(N)C(O)C(C)O1 (stereo not given) + Cc1cnc(CNC(=O)c2c(=O)c3ccc(N4CCCN(C)CC4)nc3n3c2sc2ccccc23)cn1 was what?
NO

In this assay, the call recorded for COc1ncnc(C2CC2)c1-c1ncc2cnn(Cc3ccc(-c4nc(C(F)(F)F)cn4C(C)C)cc3)c2n1 + Cc1[nH]c2ccc(F)cc2c1-c1nc2c3cccnc3c3ncccc3c2[nH]1 was what?
NO

In this assay, the call recorded for O=C(c1cc(Cc2n[nH]c(=O)c3ccccc23)ccc1F)N1CCN(C(=O)C2CC2)CC1 + Cc1cnc(CNC(=O)c2c(=O)c3ccc(N4CCCN(C)CC4)nc3n3c2sc2ccccc23)cn1 was what?
NO

In this assay, the call recorded for CC[C@@]1(O)C(=O)OCc2c1cc1n(c2=O)Cc2cc3c(CN(C)C)c(O)ccc3nc2-1 + Cc1[nH]c2ccc(F)cc2c1-c1nc2c3cccnc3c3ncccc3c2[nH]1 was what?
YES

In this assay, the call recorded for COc1ccc([C@@H](O)c2cc(-c3ncnc4cc(N5CCOCC5)ccc34)c(F)cc2Cl)nn1 + CN(C)c1ccc(Nc2c3ccc(NC(=O)CCN4CCCC4)cc3nc3cc(NC(=O)CCN4CCCC4)ccc23)cc1 was what?
NO

In this assay, the call recorded for CC1COCCN1c1cc(-c2ccnn2C)c2ccnc(-c3ccn[nH]3)c2n1 (stereo not given) + Cc1cnc(CNC(=O)c2c(=O)c3ccc(N4CCCN(C)CC4)nc3n3c2sc2ccccc23)cn1 was what?
YES

In this assay, the call recorded for CC(C)(O)C1CCC(Nc2ccc3ncc(-c4cccc(C(F)(F)F)c4)n3n2)CC1 (stereo not given) + Cc1cnc(CNC(=O)c2c(=O)c3ccc(N4CCCN(C)CC4)nc3n3c2sc2ccccc23)cn1 was what?
NO

In this assay, the call recorded for COc1cccc2c1C(=O)c1c(O)c3c(c(O)c1C2=O)CC(O)(C(=O)CO)CC3OC1CC(N)C(O)C(C)O1 (stereo not given) + Cc1[nH]c2ccc(F)cc2c1-c1nc2c3cccnc3c3ncccc3c2[nH]1 was what?
NO

In this assay, the call recorded for C#Cc1c(F)ccc2cc(O)cc(-c3ncc4c(N5CC6CCC(C5)N6)nc(OCC56CCCN5CC(F)C6)nc4c3F)c12 (stereo not given) + Cc1[nH]c2ccc(F)cc2c1-c1nc2c3cccnc3c3ncccc3c2[nH]1 was what?
NO

In this assay, the call recorded for O=C(NO)c1cnc(N2CCN(S(=O)(=O)c3ccc4ccccc4c3)CC2)nc1 + Cc1[nH]c2ccc(F)cc2c1-c1nc2c3cccnc3c3ncccc3c2[nH]1 was what?
YES

In this assay, the call recorded for O=C(c1cc(Cc2n[nH]c(=O)c3ccccc23)ccc1F)N1CCN(C(=O)C2CC2)CC1 + Cc1[nH]c2ccc(F)cc2c1-c1nc2c3cccnc3c3ncccc3c2[nH]1 was what?
NO
